Source: PubChem BioAssay AID488847

- system-name: Beta-adrenergic receptor kinase 1 (Homo sapiens) (UniProt P25098)
- Sequence (P25098 whole entry, looked up): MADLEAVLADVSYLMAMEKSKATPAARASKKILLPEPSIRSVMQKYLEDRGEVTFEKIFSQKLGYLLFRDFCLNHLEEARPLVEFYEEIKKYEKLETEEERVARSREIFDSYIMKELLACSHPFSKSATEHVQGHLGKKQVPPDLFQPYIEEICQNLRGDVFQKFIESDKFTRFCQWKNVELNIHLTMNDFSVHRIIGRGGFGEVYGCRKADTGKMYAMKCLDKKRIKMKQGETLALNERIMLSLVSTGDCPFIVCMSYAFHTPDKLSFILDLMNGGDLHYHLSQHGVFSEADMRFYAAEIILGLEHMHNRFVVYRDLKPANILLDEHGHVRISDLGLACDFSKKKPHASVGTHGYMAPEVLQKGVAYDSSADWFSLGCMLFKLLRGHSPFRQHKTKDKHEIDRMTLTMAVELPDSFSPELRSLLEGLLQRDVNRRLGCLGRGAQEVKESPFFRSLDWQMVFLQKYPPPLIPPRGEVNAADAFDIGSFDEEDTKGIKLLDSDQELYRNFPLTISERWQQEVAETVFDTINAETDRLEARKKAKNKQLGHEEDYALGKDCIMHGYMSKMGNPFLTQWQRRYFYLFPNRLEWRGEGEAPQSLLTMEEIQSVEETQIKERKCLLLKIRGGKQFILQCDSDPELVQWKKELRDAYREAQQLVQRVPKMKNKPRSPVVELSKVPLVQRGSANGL
- procedure-text: compounds blocking aptamer binding on GRK2 – biochemical, human GRK2, bead flow cytometry, HTS, primary screen (AID 488847);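 note: median bead fluorescence of bound FAM aptamer so fluorescent compounds give negative values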
- test-parameters: FAM-aptamer displacement from GRK2, at 10 µM
Screen size: about 330,000 compounds; about 1,900 (0.58%) were called active.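 Rule for the calls: active = inhibition of aptamer binding above 40%, roughly 3 SD of noise, on plates passing a quality check; inactive = the rest.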 The full list was thinned out, with actives kept by preference.
Classes used: active, inactive

compound: CCC(=C/c1sc2ccc3ccccc3c2[n+]1C)/C=C1\Sc2ccc3ccccc3c2N1C
system-name: Beta-adrenergic receptor kinase 1 (Homo sapiens) (UniProt P25098)
assigned-class: active
--
compound: NC(=O)c1nnsc1-c1ccc(-c2snnc2C(N)=O)cc1
system-name: Beta-adrenergic receptor kinase 1 (Homo sapiens) (UniProt P25098)
assigned-class: inactive
--
compound: CC(=O)N1CCc2cc(Br)cc(S(=O)(=O)CCC(=O)Nc3c(C)n(C)n(-c4ccccc4)c3=O)c21
system-name: Beta-adrenergic receptor kinase 1 (Homo sapiens) (UniProt P25098)
assigned-class: inactive
--
compound: C/C=C\C=C\C(=O)N1CC2(CC(c3cccc(NC(=O)/C(C)=C\C)c3)=NO2)C[C@H]1C(N)=O (stereo not given in full)
system-name: Beta-adrenergic receptor kinase 1 (Homo sapiens) (UniProt P25098)
assigned-class: inactive
--
compound: O=C(C1CCC1)N1CCc2cc(S(=O)(=O)NCc3cccnc3)ccc21
system-name: Beta-adrenergic receptor kinase 1 (Homo sapiens) (UniProt P25098)
assigned-class: inactive

---

- system-name: Beta-adrenergic receptor kinase 1 (Homo sapiens) (UniProt P25098)
- procedure-text: compounds blocking aptamer binding on GRK2 – biochemical, human GRK2, bead flow cytometry, HTS, primary screen (AID 488847);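 note: median bead fluorescence of bound FAM aptamer so fluorescent compounds give negative values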
- test-parameters: FAM-aptamer displacement from GRK2, at 10 µM, stronger effect = higher value
In all, about 330,000 compounds went through this assay and about 1,900 (0.58%) were called active. What follows is part of a selection rich in actives, with near analogues and random picks from the rest.

molecule: O=C(CSc1nc2ccccc2c(=O)n1-c1ccc(F)cc1)NC1CC1
inhibition of aptamer binding [%]: 0
//
molecule: c1ccc(CC2CCN(c3nc4ccccc4n4cnnc34)CC2)cc1
inhibition of aptamer binding [%]: 0
//
molecule: C=CCSc1nc2c(c(=O)[nH]1)C(C(C)C)C(C#N)=C(N)O2 (configuration not stated)
inhibition of aptamer binding [%]: 2
//
molecule: C=CC[C@@H](CC(=O)N[C@@H](CO)Cc1ccccc1)C(=O)N[C@H](COC(=O)[C@H](CC=C)CC(=O)OC(C)(C)C)Cc1ccccc1
inhibition of aptamer binding [%]: 3
//
molecule: O=C(Nc1ccccc1-c1nc2ccccc2[nH]c1=O)c1cccs1
inhibition of aptamer binding [%]: 1
//
molecule: C/C(=N\Nc1nc2ccccc2[nH]1)c1cccs1
inhibition of aptamer binding [%]: 100
//
molecule: O=C(N/C(=C/c1ccc(Cl)cc1)C(=O)N1CCCCC1)c1ccco1
inhibition of aptamer binding [%]: 0

---

- system-name: Beta-adrenergic receptor kinase 1 (Homo sapiens) (UniProt P25098)
- procedure-text: compounds blocking aptamer binding on GRK2 – biochemical, human GRK2, bead flow cytometry, HTS, primary screen (AID 488847);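 note: median bead fluorescence of bound FAM aptamer so fluorescent compounds give negative values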
- test-parameters: FAM-aptamer displacement from GRK2, at 10 µM
About 1,900 (0.58%) of roughly 330,000 compounds were called active.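 Rule for the calls: active = inhibition of aptamer binding above 40%, roughly 3 SD of noise, on plates passing a quality check; inactive = the rest.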 What follows is part of a selection rich in actives, with near analogues and random picks from the rest.
Classes used: 1 (active), 0 (inactive)

compound: O=[N+]([O-])c1cccc2ncccc12
assigned-class: 0
//
compound: CN(CC(=O)N1CCN(c2ccccc2)CC1)S(=O)(=O)c1cccs1
assigned-class: 0
//
compound: Cc1ccc2c(c1)C1CN(C)CCC1N2S(=O)(=O)c1ccc(Oc2ccc([N+](=O)[O-])cc2)cc1 (centres undefined)
assigned-class: 0
//
compound: S=C(Nc1cccnc1)Nc1ccccn1
assigned-class: 0
//
compound: Cc1ccc(S(=O)(=O)NCCSC(C)(C)C)cc1
assigned-class: 0
//
compound: CCCC/S(C)=N/S(=O)(=O)c1ccc(C)cc1 (centres undefined)
assigned-class: 0
//
compound: CCOC(=O)C1CCN(C(c2cc3cc(C)cc(C)c3[nH]c2=O)c2nnnn2C2CCCCC2)CC1 (centres undefined)
assigned-class: 0
//
compound: Cc1ccc(C(CNC(=O)Nc2ccccc2)N2CCN(C)CC2)cc1 (centres undefined)
assigned-class: 0
//
compound: Cc1ccc(C(CNC(=O)Nc2cccc(C)c2)N2CCN(C)CC2)cc1 (centres undefined)
assigned-class: 1

---

- system-name: Beta-adrenergic receptor kinase 1 (Homo sapiens)
- procedure-text: compounds blocking aptamer binding on GRK2 – biochemical, human GRK2, bead flow cytometry, HTS, primary screen (AID 488847);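 note: median bead fluorescence of bound FAM aptamer so fluorescent compounds give negative values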
- test-parameters: FAM-aptamer displacement from GRK2, at 10 µM
The campaign covered roughly 330,000 compounds. About 1,900 (0.58%) were called active.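 Rule for the calls: active = inhibition of aptamer binding above 40%, roughly 3 SD of noise, on plates passing a quality check; inactive = the rest.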 This excerpt belongs to a sample that is enriched for actives.
Classes used: active, inactive

molecule: O=C(NNC(=S)NC1CC2CCC1C2)c1ccc(Cl)cc1 (configuration not stated)
assigned-class: inactive
--
molecule: CCCCN(C(=O)c1ccc(C)o1)c1c(N)n(CCCC)c(=O)[nH]c1=O
assigned-class: inactive
--
molecule: N#Cc1c(-c2ccccc2)nc(SCc2ccc([N+](=O)[O-])cc2)[nH]c1=O
assigned-class: inactive
--
molecule: COCCn1c(N)c(NCc2ccccc2)c(=O)[nH]c1=O
assigned-class: active
--
molecule: COc1ccc(NC(=O)COc2ccc(C(=O)OCC(=O)N(C)C3CCS(=O)(=O)C3)cc2OC)cc1 (configuration not stated)
assigned-class: inactive
--
molecule: CCCCn1c(N)c(N(CCC(C)C)C(=O)c2ccc(COc3ccccc3)o2)c(=O)[nH]c1=O
assigned-class: inactive
--
molecule: S=C(NNC(=S)NC1CC2CCC1C2)NC1CC2C=CC1C2 (configuration not stated)
assigned-class: inactive
